# assayed system: human ether-à-go-go-related gene (hERG) potassium channel (human, UniProt Q12809)
# Sequence (Q12809 whole entry, looked up): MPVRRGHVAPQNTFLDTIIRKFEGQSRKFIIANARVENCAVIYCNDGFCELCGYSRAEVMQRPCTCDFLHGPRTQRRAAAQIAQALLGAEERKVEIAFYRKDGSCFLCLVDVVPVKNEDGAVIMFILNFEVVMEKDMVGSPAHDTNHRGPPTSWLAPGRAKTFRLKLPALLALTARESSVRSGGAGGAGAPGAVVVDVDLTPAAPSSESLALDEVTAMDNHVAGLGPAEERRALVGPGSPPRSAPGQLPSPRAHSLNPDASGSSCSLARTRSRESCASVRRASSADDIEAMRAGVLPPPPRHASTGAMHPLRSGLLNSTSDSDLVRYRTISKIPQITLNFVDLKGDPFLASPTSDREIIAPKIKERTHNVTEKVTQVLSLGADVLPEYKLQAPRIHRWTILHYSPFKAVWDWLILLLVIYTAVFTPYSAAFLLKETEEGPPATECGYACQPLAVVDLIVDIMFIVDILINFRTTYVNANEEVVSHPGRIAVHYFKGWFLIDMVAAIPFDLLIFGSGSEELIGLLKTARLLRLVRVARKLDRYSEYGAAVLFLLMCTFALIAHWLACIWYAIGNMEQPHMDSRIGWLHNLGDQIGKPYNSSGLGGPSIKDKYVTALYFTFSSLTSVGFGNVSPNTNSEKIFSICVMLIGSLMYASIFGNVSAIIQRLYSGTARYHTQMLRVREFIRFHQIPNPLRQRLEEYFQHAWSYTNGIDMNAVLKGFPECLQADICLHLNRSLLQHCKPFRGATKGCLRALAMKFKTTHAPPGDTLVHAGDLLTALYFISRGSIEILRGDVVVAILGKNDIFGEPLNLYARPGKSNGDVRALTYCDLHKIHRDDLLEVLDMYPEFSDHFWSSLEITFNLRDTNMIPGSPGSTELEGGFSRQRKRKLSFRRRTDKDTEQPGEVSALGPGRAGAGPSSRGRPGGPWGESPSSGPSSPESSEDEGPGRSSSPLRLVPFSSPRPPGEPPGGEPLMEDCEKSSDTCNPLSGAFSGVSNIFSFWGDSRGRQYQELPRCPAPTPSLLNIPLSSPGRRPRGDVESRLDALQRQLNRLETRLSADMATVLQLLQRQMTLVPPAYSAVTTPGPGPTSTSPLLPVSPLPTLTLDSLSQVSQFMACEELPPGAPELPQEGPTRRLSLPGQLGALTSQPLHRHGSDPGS
# test: primary screen, population patch clamp on CHO cells stably expressing hERG; higher = less effect of the substance
In all, about 310,000 compounds went through this assay and about 14,000 (4.5%) showed an effect of 50% or more. Effects have a minus sign here. Shown is part of a subset that was picked to be rich in strong results.
Label rule not met if hERG current change (%, negative = inhibition) at 10uM falls below 10%; label rule met in every other case.

Solved entries:
1. COc1ccc(Nc2nc(N)c3ccccc3n2)c(OC)c1.Cl; rule not met
2. COc1ccc([N+](=O)[O-])cc1Nc1c2ccccc2nc2ccccc12; rule not met
3. Cc1ccc2cc(/C=C/C(=O)c3ccco3)c(Cl)nc2c1; rule met
4. COc1c2ccccc2nc2ccccc12; rule met
5. COc1cc(NS(C)(=O)=O)ccc1Nc1c2ccccc2nc2ccccc12.Cl; rule not met

Confirm if hERG current change (%, negative = inhibition) at 10uM reported for the compound O=C(c1ccc(NS(=O)(=O)c2cccs2)cc1)N1CCOCC1 is 10% or above.
rule met

Queued: COc1cc(Nc2nc(SCC#N)nc3ccccc23)cc(OC)c1OC
rule not met

---

# assayed system: human ether-à-go-go-related gene (hERG) potassium channel (human)
# test: primary screen, population patch clamp on CHO cells stably expressing hERG; higher = less effect of the substance
In all, about 310,000 compounds went through this assay and about 14,000 (4.5%) showed an effect of 50% or more. The effect is printed as a negative number. The entries come from a sample that favours strong results as a whole.
measure name: hERG current change (%, negative = inhibition) at 10uM (%)
Give just the number in %; leave the unit off.

Field: example entries. Status: answers known.
1) O=C(c1ccc(-c2ccccc2)cc1)N1CCN(c2ccccc2F)CC1; 7.96
2) O=C1CN(C(=O)COC(=O)CNC(=O)c2ccc(Cl)cc2)c2ccccc2N1; -6.75

What hERG current change (%, negative = inhibition) at 10uM appears in the records for this compound with human ether-à-go-go-related gene (hERG) potassium channel (human)? Cc1c(C(=O)NN2CCOCC2)oc2ccccc12
16.5

Now give it for Cc1nc2ccccc2c2c1CC(C(C)(Cl)Br)O2 (stereo not shown) too.
-61.6

---

Each record here notes measured hERG current change (%, negative = inhibition) at 10uM.
# assayed system: human ether-à-go-go-related gene (hERG) potassium channel (human);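 further: peak tail current of the secondary pulse compared with the same well before compound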
# test: primary screen, population patch clamp on CHO cells stably expressing hERG; higher = less effect of the substance
The whole screen tested about 310,000 compounds, of which about 14,000 (4.5%) showed an effect of 50% or more. Effects have a minus sign here. The sample holds strong results, similar compounds and a random draw of the others, so the mix is not that of the screen.
Give a bare numeral; the unit % is implied.

For Cc1cc(C(=O)CN2C(=O)c3ccccc3C2=O)c(C)n1C1CC1 , what is its reported hERG current change (%, negative = inhibition) at 10uM?
-1.31

---

# assayed system: human ether-à-go-go-related gene (hERG) potassium channel (human, UniProt Q12809);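 further: peak tail current of the secondary pulse compared with the same well before compound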
# test: primary screen, population patch clamp on CHO cells stably expressing hERG; higher = less effect of the substance
The whole screen tested about 310,000 compounds, of which about 14,000 (4.5%) showed an effect of 50% or more. The effect is printed as a negative number. The sample holds strong results, similar compounds and a random draw of the others, so the mix is not that of the screen.
The threshold is inclusive: hERG current change (%, negative = inhibition) at 10uM of exactly -30% counts as T; values below receive F.

Observe how each entry below is paired with its result.
1. CCOc1ccc(CN2CCN(S(=O)(=O)c3ccc(NC(C)=O)cc3)CC2)cc1OC.O=C(O)C(=O)O; F
2. CCc1ccc(-c2cc(C(=O)N/N=C/c3ccccn3)[nH]n2)cc1; F
3. Cc1ccc(NS(=O)(=O)c2cccc(C(=O)NCC3CCCO3)c2)cc1 (stereo not shown); T

Given the entry Cc1cccn2c(=O)c(/C=C(\C#N)C(=O)NCc3ccco3)c(N3CCCCC3)nc12 , answer whether its hERG current change (%, negative = inhibition) at 10uM meets or surpasses -30%.
F

Next molecule up: Cc1cccn2c(=O)c(/C=C(\C#N)C(=O)NCc3ccco3)c(N3CCCCCC3)nc12
F

Let us now turn to Cn1cccc1C(=O)N/N=C/c1c(Cl)cccc1Cl
T

Another: CCOP(=O)(OCC)c1cc(C)c(O)c(C(C)(C)C)c1
T

Same question for COc1cccc(/C=C(/C#N)c2ccc(F)cc2)c1OCc1cccc(C(=O)O)c1 please.
T

Okay, and Cc1cccn2c(=O)c(/C=C(\C#N)S(=O)(=O)c3ccccc3)c(N3CCN(Cc4ccccc4)CC3)nc12 ?
T

Consider next the molecule CSc1ncccc1C(=O)OCC(=O)c1cccs1 in the same way.
T

Same thing, different molecule: Cc1cc(OCC(=O)N2C[C@H]3C[C@@H](C2)c2cccc(=O)n2C3)c2c(C)c(C)c(=O)oc2c1
T

What do you have for CNc1ccc(Br)cc1C(O)c1ccccc1 (stereo not shown) ?
T

For Cc1ccc(S(=O)(=O)/C(C#N)=C/c2c(Oc3ccc(Cl)cc3)nc3c(C)cccn3c2=O)cc1 then?
T

Request: OCCC1CN(Cc2c(O)ccc3ccccc23)CCN1CCc1ccccc1 (stereo not shown)
T

Also check Cc1ccc(S(=O)(=O)/C(C#N)=C/c2c(N3CCN(C)CC3)nc3c(C)cccn3c2=O)cc1
F

Cool, now Cc1cccn2c(=O)c(/C=C(\C#N)S(=O)(=O)c3ccccc3)c(N3CCN(C)CC3)nc12
F

Note, next up: CCN1CCN(c2nc3c(C)cccn3c(=O)c2/C=C(\C#N)S(=O)(=O)c2ccccc2)CC1
T

Likewise for COc1ccccc1CCC(=O)Nc1ccc(S(=O)(=O)Nc2cc(C)nc(C)n2)cc1 ?
T

Please answer likewise for COc1ccc(O)c(CN2CCN(CCCc3ccccc3)C(CCO)C2)c1 (stereo not shown)
F

---

# assayed system: human ether-à-go-go-related gene (hERG) potassium channel (human, UniProt Q12809);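 further: peak tail current of the secondary pulse compared with the same well before compound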
# test: primary screen, population patch clamp on CHO cells stably expressing hERG; higher = less effect of the substance
About 14,000 (4.5%) of roughly 310,000 compounds showed an effect of 50% or more. The effect is printed as a negative number. Shown is part of a subset that was picked to be rich in strong results.
hERG current change (%, negative = inhibition) at 10uM: recorded values
Give the quantity in %, number only.

These recorded examples may help you get a feel for the data.
1. CC1(CCc2ccccc2)NC(=O)N(Cc2nnc(-c3ccccc3Br)o2)C1=O (stereo not drawn); -26
2. O=C(Nc1ccc(N2CCN(C(=O)c3cccs3)CC2)cc1)c1cccc(F)c1; -62.6
3. O=C(Nc1ccc(N2CCN(C(=O)c3cccs3)CC2)cc1)c1ccc(F)cc1; -15.3
4. COC(=O)N(NC(=O)C(O)(c1ccccc1)c1ccccc1)c1ccccc1; 9.59
5. Clc1ccc(-c2ncc3ccccn23)cc1; -4.95

# query: hERG current change (%, negative = inhibition) at 10uM of entry O=C(Nc1ccc(N2CCN(C(=O)c3ccc(Cl)cc3)CC2)cc1)c1cc2ccccc2o1
-0.396

Can you handle O=C(Nc1ccc(N2CCN(C(=O)c3ccccc3)CC2)cc1)c1ccc(Br)o1 next?
-75.9

Next compound up: CS(=O)(=O)c1nc(S(=O)(=O)c2ccc(Cl)cc2)c(NCCN2CCOCC2)s1
-31.6

Proceed to CSc1cccc(NC(=O)C2CCN(C(=O)c3ccccc3C)CC2)c1
-18.7

---

Each record here notes measured hERG current change (%, negative = inhibition) at 10uM.
# assayed system: human ether-à-go-go-related gene (hERG) potassium channel (human);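 further: peak tail current of the secondary pulse compared with the same well before compound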
# test: primary screen, population patch clamp on CHO cells stably expressing hERG; higher = less effect of the substance
Hit rate of the full screen: of about 310,000 compounds, about 14,000 (4.5%) showed an effect of 50% or more. The effect is printed as a negative number. The list comes from a sample in which strong results are over-represented; it also holds close analogues and randomly drawn compounds.
Please state the figure in %; there is no need to write the unit.

Observe how each entry below is paired with its result.
1) CCCOC(=O)CC1C(=O)NCCN1Cc1ccc(F)cc1 (centres unmarked); 3.35
2) C=CCSc1nnc(CNC(=O)c2ccccc2C)n1C(C)C; 5.68
3) COc1ccccc1CCc1nnc(CCC(=O)NCCOc2cccnc2)o1; 7.9

Name the recorded hERG current change (%, negative = inhibition) at 10uM for COC(=O)c1cccc(N(CC(=O)NC2CCCC2)C(=O)CNC(=O)c2cccs2)c1 .
-1.26

How about CCN(CC)S(=O)(=O)N1CCC(C(=O)NCc2ccc(C)cc2)CC1 ?
-16.9

And CCn1c(NC(=O)c2ccccc2)nc2ccccc21 ?
4.47

Next compound: Nc1ccc(C(=O)OCc2ccncc2)cc1[N+](=O)[O-]
-28.7

Repeat with Cc1ccc(OCCOC(=O)c2c(-c3ccccc3)noc2C)cc1
7.59

Can you check OC1(c2cccc(C(F)(F)F)c2)CCN(Cc2nc(-c3cnccn3)no2)CC1 next?
-0.399

Could you do the same for CC1(C)COC(c2coc3ccccc3c2=O)OC1 , please?
3.85

Moving on to Cc1ccc(CNC(=O)C2CCCC2)cc1
8.93
